target: HLA-B*2705 (Homo sapiens, UniProt P01889, D138H/D201E/E176V/E204Q/G107R/H137Y/K202T/N104T/N87E/Q56L/Q94K/R106L/R155S/R180L/S101D/S121N/S48T/Y140D/Y33H/Y91C); experiment: biochemical; type: binding
pIC50: −log10 of the molar value. No end group written: not given here.
Recorded pIC50 values for a group of sequences are listed next.
readout-kind: pIC50

1. TRYPTILQL | 7.01
2. RRQDILDLWI [reference compound] | 7.00
3. RRSKEITVR [reference compound] | 8.26
4. RRISGVDRY [reference compound] | 7.68
5. EREQTLNQL [reference compound] | 5.57
6. RRAIRGEQL [Vif123–131RL9] | 7.55
7. NRAKQVIKL [reference compound] | 6.49

---

biological target: HLA-B*2705 (Homo sapiens, UniProt P01889, D138H/D201E/E176V/E204Q/G107R/H137Y/K202T/N104T/N87E/Q56L/Q94K/R106L/R155S/R180L/S101D/S121N/S48T/Y140D/Y33H/Y91C); test: biochemical; assay type: binding
pIC50: −log10 of the molar value. No end group written: not given here.
Recorded pIC50 values for a group of sequences are listed next.
readout-kind: pIC50

1) RRRWQQLL [Rev44–51RL8] | 7.92
2) YRRWIQLGL [Gag263–271YL9] | 8.57
3) LRQGYRPVF [Env717–725LF9] | 7.28
4) SRHHAFCFR [reference compound] | 7.38
5) MRDHTITLL [reference compound] | 7.28
6) ARLFGIRAK [reference compound] | 6.88
7) SRLWPKIQGL | 7.77
8) RRSPFLQVF | 7.85

---

Recorded pIC50 values for a group of sequences are listed next.
target: HLA-B*2705 (Homo sapiens, UniProt P01889, D138H/D201E/E176V/E204Q/G107R/H137Y/K202T/N104T/N87E/Q56L/Q94K/R106L/R155S/R180L/S101D/S121N/S48T/Y140D/Y33H/Y91C); assay: biochemical; type: binding
pIC50: −log10 of the molar value. No end group written: not given here.
readout-kind: pIC50

1. RRIRQGLEL [Env868–876RL9] | 7.89
2. SRTPYHVNL | 7.66
3. SRLEILNVL | 7.10
4. RRHRILDIYL [Nef137–146RL10] | 8.74
5. RRSRPSGDL [Nef8–16RL9] | 6.45
6. ARKLLLDNL [reference compound] | 7.13
7. DRLALLANL [reference compound] | 6.74
8. KRGVFVLGF [Env524–532KF9] | 7.89
9. RRPPLLPLLL | 7.00
10. RRLTARGLL [Nef246–254RL9] | 8.00
11. NRFSVAYML [reference compound] | 8.01
12. SRYDPSISF | 6.60
13. IRILQRALF [Vpr62–70IF9] | 7.85
14. RRYNIIPVL | 8.10
15. RRDNRRGL [Vif172–179RL8] | 6.76
16. SRQFGFIVL | 6.89
17. ARAALQELL | 6.86

Cited source for all entries: paper PMC2701622
